assay.remarks: A quantitative high throughput screen for small molecules that induce DNA re-replication in MCF 10a normal breast cells. Also: nearly all actives have a fitted effect of over 50% in size.
recorded.conditions: MCF 10A DNA re-replication, Hoechst nuclear intensity, 48 h; series mostly up to 46.1 µM
Hit rate of the full screen: of about 350,000 compounds, about 9,900 (2.8%) were called active. Inconclusive results (about 15%) are left out. Calls follow the shape of the dose curve; as a rule, active = well fitted activation curve with a large enough effect; inconclusive = small, poorly fitted or top-dose-only effect; inactive = no such curve, though single readings can be large or run the other way. The full list was thinned out, with actives kept by preference.
Classes to choose from: T for active, F for inactive

Some entries whose results are on file:
INSERT INTO measurements (smiles_repr, class_assignment) VALUES
  ('CN(C(=O)CSc1cccc[n+]1[O-])C1CCCCC1', 'F'),
  ('CN(CC(=O)Nc1ccc(C(N)=O)cc1)S(=O)(=O)c1ccc2c(c1)OCCO2', 'F'),
  ('COc1ccccc1C(=O)CSc1cccc[n+]1[O-]', 'F'),
  ('Cc1ccsc1C(=O)NNC(=O)COc1ccc(Br)cc1', 'F'),
  ('COc1ccc(-c2ccc3c(c2)[C@@H]2C[C@H](N(C)S(=O)(=O)c4ccccc4)[C@H]([C@H](C)O)C(=O)N2CC3)cc1', 'F'),
  ('CC/C(=C\c1ccc(Cl)cc1)c1ccncc1', 'F');

Recorded test outcome, item `Cc1c(C(=O)N2CCCc3ccccc32)oc2ccccc12`
F

How did this test come out for `O=C(CSc1cccc[n+]1[O-])c1ccc(-c2ccccc2)cc1` ?
T

What was the test verdict on `Cc1ccc(N(CC(=O)Nc2cccc(N(C)S(C)(=O)=O)c2)S(C)(=O)=O)cc1` ?
F

In this assay, the call recorded for `O=C(CSc1cccc[n+]1[O-])c1ccc(Cl)cc1` was what?
F

// param item: `Cc1cccc2cc3c(N)c(C(=O)N4CCCc5ccccc54)sc3nc12` ; yields the recorded call
T

---

assay.remarks: A quantitative high throughput screen for small molecules that induce DNA re-replication in MCF 10a normal breast cells. Also: nearly all actives have a fitted effect of over 50% in size. Also: potency is read from the fitted curve at half-maximal effect.
recorded.conditions: MCF 10A DNA re-replication, Hoechst nuclear intensity, 48 h; series mostly up to 46.1 µM
The whole screen tested about 350,000 compounds, of which about 9,900 (2.8%) were called active. Not shown: some 15% with an inconclusive outcome. Many of the other results were omitted from the sample, so actives are more common in it than they were.
reported.endpoint: Potency

Known Potency results, listed for orientation:
INSERT INTO measurements (molecule, readout_value) VALUES
  ('CCOc1cc(N2CCOCC2)c(OCC)cc1NC(=O)c1cc(C)nc2ccccc12', 'inactive'),
  ('Cc1nnc(NC(=O)Nc2ccc(Cl)c(Cl)c2)s1', 'inactive'),
  ('CCOc1cc(N2CCOCC2)c(OCC)cc1NC(=O)COc1cccc(Cl)c1', 'inactive'),
  ('Cn1c(=O)c2c(ncn2CC(=O)N2CCN(c3ccccc3)CC2)n(C)c1=O', 'inactive'),
  ('Cc1ccc(NC(=O)C2CC(=O)N(c3ccc4c(c3)OCCO4)C2)cc1S(=O)(=O)N1CCCCCC1 (stereo not given)', 'inactive'),
  ('COc1ccc(OC)c(NC(=O)COC(=O)Cc2ccsc2)c1', 'inactive'),
  ('COc1ccc(C(=O)Nc2ccc(C3(C#N)CCCC3)cc2)cc1OC', '20.6 µM (active)'),
  ('CC(NC(=O)c1ccc(S(=O)(=O)Nc2ccccc2)cc1)c1ccc(S(N)(=O)=O)cc1 (stereo not given)', 'inactive'),
  ('CCOc1cc(N2CCOCC2)c(OCC)cc1NC(=O)COc1cccc2cccnc12', '15.8 µM (active)');

Quick check: Potency of `CN(C)C(=O)CCc1ccc2c3c([nH]c2c1)[C@]1(C)[C@@H](C(=O)N2CCOCC2)C[C@H](CC(=O)NCCc2ccccn2)C(=O)N1CC3` ?
inactive

---

assay.remarks: A quantitative high throughput screen for small molecules that induce DNA re-replication in MCF 10a normal breast cells. Also: nearly all actives have a fitted effect of over 50% in size.
recorded.conditions: MCF 10A DNA re-replication, Hoechst nuclear intensity, 48 h; series mostly up to 46.1 µM
Hit rate of the full screen: of about 350,000 compounds, about 9,900 (2.8%) were called active. Another 15% or so got no clear call; they are omitted. Calls follow the shape of the dose curve; as a rule, active = well fitted activation curve with a large enough effect; inconclusive = small, poorly fitted or top-dose-only effect; inactive = no such curve, though single readings can be large or run the other way. This excerpt belongs to a sample that is enriched for actives.
Form entry, call: pick from active, inactive

Completed entries (count: 5):
INSERT INTO measurements (molecule, class_assignment) VALUES
  ('COc1ccc(/C=C/C(=O)OCC(=O)N2CCN(S(=O)(=O)c3ccc(C)cc3C)CC2)cc1OC', 'inactive'),
  ('CC/C(=C(/c1ccccc1)c1ccc(OCC[N+](C)(C)C)cc1)c1ccccc1', 'inactive'),
  ('CCOC(=O)Cc1csc(SCC(=O)Nc2ccc(C)cc2F)n1', 'inactive'),
  ('CSCCNC(=O)c1ccc2nc(Cc3ccccc3F)oc2c1', 'inactive'),
  ('Cc1ccccc1C1CC(c2cccs2)=NN1S(C)(=O)=O (stereo unspecified)', 'inactive');

// outcome(item) with item = `Cc1ccc(S(=O)(=O)N2CCCCC2)cc1NC(=O)[C@@H]1CCCN1C(=O)c1cccs1`
inactive

What call does the record list for Fc1ccc(N2N=C(c3cccs3)CC2c2ccco2)c(F)c1 (stereo unspecified) ?
active

# lookup: test call for O=C(NCc1ccccc1)C(=O)NCC1OCCN1S(=O)(=O)c1ccc(Br)cc1 (stereo unspecified)
inactive

Recorded test outcome, item `CCCc1ccc(-c2c(C)sc(NC(=O)c3ccnn3C)c2C#N)cc1`
active

Could you check what this test reported for `Cn1nccc1CNC(=O)c1ccnn1C` ?
inactive

// param item: O=C(NCc1ccncc1)C(=O)NCC1OCCN1S(=O)(=O)c1ccc(Br)cc1 (stereo unspecified) ; yields the recorded call
active

---

assay.remarks: A quantitative high throughput screen for small molecules that induce DNA re-replication in MCF 10a normal breast cells. Also: nearly all actives have a fitted effect of over 50% in size. Also: potency is read from the fitted curve at half-maximal effect.
recorded.conditions: MCF 10A DNA re-replication, Hoechst nuclear intensity, 48 h; series mostly up to 46.1 µM
Hit rate of the full screen: of about 350,000 compounds, about 9,900 (2.8%) were called active. Not shown: some 15% with an inconclusive outcome. This is one part of a sample in which actives are shown more often than they occur.
reported.endpoint: Potency

Below, each entry is followed by its recorded Potency result.
INSERT INTO results (smiles_repr, readout_value) VALUES
  ('O=C(Cn1cnc2c(OCc3ccccc3)ncnc21)NCCCn1ccnc1', 'inactive'),
  ('COc1cccc(NC(=O)CN(C)CC(=O)Nc2ccc3c(c2)CCC3)c1', '0.651 µM (active)'),
  ('COc1cccc(NC(=O)CN(C)C(=O)CSC(=S)N2CCCC2)c1', 'inactive'),
  ('COc1ccc(NC(=O)CN(C)CC(=O)Nc2cccc(C(F)(F)F)c2)cc1', 'inactive');

We next turn to a different molecule, shown below.
What value of Potency has been reported for the following molecule? `CC(C)(C)OC(=O)N1CCC(NC(=O)c2[nH]cnc2C(=O)N[C@@H](Cc2ccccc2)C(=O)OCc2ccccc2)CC1`
14.6 µM (active)

---

assay.remarks: A quantitative high throughput screen for small molecules that induce DNA re-replication in MCF 10a normal breast cells. Also: nearly all actives have a fitted effect of over 50% in size.
recorded.conditions: MCF 10A DNA re-replication, Hoechst nuclear intensity, 48 h; series mostly up to 46.1 µM
The campaign covered roughly 350,000 compounds. About 9,900 (2.8%) were called active. Inconclusive results (about 15%) are left out. Calls come from the whole dose curve; as a rule, active = well fitted activation curve with a large enough effect; inconclusive = small, poorly fitted or top-dose-only effect; inactive = no such curve, though single readings can be large or run the other way. The entries come from a sample that favours actives as a whole.
Would you mind answering with one of these outcomes? true for active, false for inactive

INSERT INTO results (compound, class_assignment) VALUES
  ('O=C(CC(Cc1ccccc1)C(=O)O)NCCc1ccc2c(c1)OCO2 (stereo unspecified)', 'false'),
  ('CCC1([N+](=O)[O-])COC(c2ccc(C)cc2)OC1 (stereo unspecified)', 'false'),
  ('C[C@H]1COC(=O)[C@H](CC(=O)OC(C)(C)C)C/C=C\C[C@@H](CC(=O)N[C@H](CO)Cc2ccccc2)C(=O)N1', 'false'),
  ('CC1CCCN(CC(O)COc2ccc3c(c2)OCO3)C1 (stereo unspecified)', 'false'),
  ('COC(=O)C1CC2=C(CC(C)(C)CC2=O)N(c2ccccc2)C1=O (stereo unspecified)', 'false'),
  ('CCCc1nc(SCC(=O)N2CCCC2)c2c(=O)n(C)c(=O)n(C)c2n1', 'false'),
  ('Cc1ccc(Cn2c(C)c3cnn(CC(=O)NCCN4CCOCC4)c(=O)c3c2C)cc1', 'false'),
  ('Cn1c(SCC(=O)Nc2nccs2)nnc1-c1cccnc1', 'false'),
  ('COc1cccc2sc(N(CCCN(C)C)C(=O)CCS(=O)(=O)c3ccccc3)nc12', 'true'),
  ('CCOC(=O)N1CCN(C(=O)CSc2nc(C)nc3c2c(=O)n(C)c(=O)n3C)CC1', 'true');

Hi, sorry to bother you, what did the test record for `Cn1c(SCC(=O)Nc2ccc(N3CCOCC3)cc2)nnc1C(F)(F)F` ?
false

Write down the call the test reported for this compound. Item: `NC(=O)c1ccc(N2CCCC2)nc1`
false

Each compound tested received a call. Report the one for `Cc1cc(OCCCC(=O)Nc2cc(S(=O)(=O)N3CCOCC3)ccc2N2CCOCC2)ccc1Cl` .
false

What did this assay record as the result for `O=C(COC(=O)c1ccc2c(c1)OCCO2)NCc1ccccc1` ?
false

# fetch the recorded call for `O=C(CCc1ccccc1Cl)Nc1ccc(S(=O)(=O)Nc2nccs2)cc1` here
false

Call for entry `Cn1cc(CCC(=O)NCc2ccc3c(c2)OCO3)c2ccccc21` :
false

Provenance of the data: PubChem BioAssay AID624296
